B1: TPR t1 (parent)
chain: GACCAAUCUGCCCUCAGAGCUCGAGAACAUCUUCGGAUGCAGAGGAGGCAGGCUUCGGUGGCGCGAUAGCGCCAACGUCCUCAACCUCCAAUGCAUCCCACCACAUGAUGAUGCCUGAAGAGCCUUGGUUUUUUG

- Variants of: B1
- assay.procedure: polymerase ribozyme fitness, log enrichment relative to wild type (log ratio); higher = more active; in vitro selection for triplet polymerase activity
assay.metric: polymerase ribozyme fitness (log ratio)
Returns: the value as a bare number; no unit string appended.

| mutation.notation | polymerase ribozyme fitness (log ratio) |
| --- | --- |
| C73U A103G | -4.17 |
| G35C A43G G60A C62U C64G A84U C98U A111U A121U | -7.98 |
| U14G G71A | -1.59 |
| G19A C70G C85U C114G | -7.51 |

For the variant shown here, C12A G17U A46G C80G A84G C115A , give the reported polymerase ribozyme fitness (log ratio). -4.53

Same question, C40A A43G C56G G135U this time -4.41

Same question, C49U C64U this time -0.897

Same question, U87A C123G this time 1.66

Same question, C62G G93A this time -1.76

Same question, A2C G71A this time -2.36

Same question, G60C U87A C101U G117A U132A this time -1.89

Same question, A5U A91C U96G A121G this time -0.932

Same question, A24G C94A this time -2.52

Same question, G42U C72G G128C this time -4.55
